System: Bacillus subtilis
testMethodNotes: Effect on quorum sensing-mediated genetic competence in Bacillus subtilis expressing srfA-lacZ fusion assessed as maximum activity after 5 hrs by beta-galactosidase assay relative to ComXRO-E-2 pheromone
*1 amine or outer side, *2 acyl side, *3 side chain or, on linkers, in order; H or OH if unused. Where a SMILES comes first, the peptide text is derived from it. [ ]: non-standard residue; d: D form. X2 = CC(C)=CCC/C(C)=C/CC/C(C)=C/C[C@]12C[C@@H](C(=O)[*:2])N([*:1])[C@H]1Nc1ccccc12
observable: Emax (%)

[[record]]
compound = "CC(C)=CCC/C(C)=C/C[C@]12C[C@@H](C(=O)NCC(=O)O)N(C(=O)C(N)Cc3ccccc3)[C@H]1Nc1ccccc12 (single isomer, unassigned)"
numericresult = 40

[[record]]
compound = "CC[C@H](C)[C@H](N)C(=O)N1[C@H]2Nc3ccccc3[C@@]2(C/C=C(\\C)CCC=C(C)C)C[C@H]1C(=O)N[C@@H](C)C(=O)O"
numericresult = 35

[[record]]
compound = "CC(C)=CCC/C(C)=C/C[C@]12C[C@@H](C(=O)N[C@@H](CCC(=O)O)C(=O)O)N(C(=O)C(N)Cc3ccccc3)[C@H]1Nc1ccccc12 (single isomer, unassigned)"
numericresult = 60


P. CC[C@H](C)[C@H](NC(=O)CN)C(=O)N[C@@H](Cc1ccccc1)C(=O)N1[C@H]2Nc3ccccc3[C@@]2(C/C=C(\C)CC/C=C(\C)CCC=C(C)C)C[C@H]1C(=O)N[C@@H](CCC(=O)O)C(=O)N[C@@H](CCC(N)=O)C(=O)O (H-GIF[X2]EQ-OH)
Q. CC(C)=CCC/C(C)=C/C[C@]12C[C@@H](C(=O)N[C@@H](C)C(=O)O)N(C(=O)[C@@H](N)CC(C)C)[C@H]1Nc1ccccc12
In: Field: lower Emax | Options: P / Q Lab note: record the label of whichever item you select.
Out: Q

P. CC(C)=CCC/C(C)=C/C[C@]12C[C@@H](C(=O)N[C@@H](C)C(=O)O)N(C(=O)C(N)Cc3ccccc3)[C@H]1Nc1ccccc12 (single isomer, unassigned)
Q. CC(C)=CCC/C(C)=C/C[C@]12C[C@@H](C(N)=O)N(C(=O)c3ccccc3)[C@H]1Nc1ccccc12
In: # compare Emax for P vs Q ; return the one with the smaller value API: response body contains the label of the selected item.
Out: Q
(Q: 0%, P: 70%)
